Study conditions: in ethyl acetate, 305.65 K
Readout kind: solubility (mole fraction)
Lab note: jot the number down without any unit.

Measured solubility (mole fraction) of `CC1=NN(c2ccc(C)cc2)C(=O)C1` : 0.0444

====

Study conditions: in n-propanol, 280.65 K
Readout kind: solubility (mole fraction)
Answer as a number with no unit attached.

The compound listed as `CC1=NN(c2ccc(C)cc2)C(=O)C1` has a reported solubility (mole fraction) of 0.0194

====

Study conditions: in ethylbenzene, 285.65 K
Readout kind: solubility (mole fraction)
Give your answer as a number; write no unit.

`CC1=NN(c2ccc(C)cc2)C(=O)C1` has a reported solubility (mole fraction) of 0.0146

These measurements were taken from BigSolDB 2.1.
